pIC50: −log10 of the molar value. Where a name gives a salt, the structure may show the parent alone.
Target or system ERα_LBD(GST) (Homo sapiens (Human), UniProt P03372): recorded pIC50 listed per item.

Here are 8 compounds together with their reported answers.
[in] Look up pIC50 with ERα_LBD(GST) (Homo sapiens (Human), UniProt P03372) for this compound: COc1cc(N2CCC(CN3CCN4c5cc6c(cc5OC[C@@H]4C3)C(=O)N([C@H]3CCC(=O)NC3=O)C6)CC2)ccc1[C@@H]1c2[nH]c3ccccc3c2C[C@@H](C)N1CC(F)F [Compound A29]
Sequence (P03372 311-547): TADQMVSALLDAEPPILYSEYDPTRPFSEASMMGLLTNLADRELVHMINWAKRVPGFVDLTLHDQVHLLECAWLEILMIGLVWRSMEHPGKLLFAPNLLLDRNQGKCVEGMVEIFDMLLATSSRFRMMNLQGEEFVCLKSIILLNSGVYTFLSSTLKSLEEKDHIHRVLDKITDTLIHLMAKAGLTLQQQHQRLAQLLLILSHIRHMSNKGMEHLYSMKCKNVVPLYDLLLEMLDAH
[out] > 8.00

[in] Notebook entry, ERα_LBD(GST) (Homo sapiens (Human), UniProt P03372) assay: pIC50 of COc1cc(N2CCC(CN3CCN(c4ccc(C(=O)N[C@H]5CCC(=O)NC5=O)nc4)CC3)CC2)ccc1[C@@H]1c2[nH]c3ccccc3c2C[C@@H](C)N1CC(F)F = ?
[out] > 8.00

[in] So what pIC50 did COc1cc(N2CCC(CN3CCN4c5ccc6c(c5OC[C@@H]4C3)CN([C@H]3CCC(=O)NC3=O)C6=O)CC2)ccc1[C@@H]1c2[nH]c3ccccc3c2C[C@@H](C)N1CC(F)F [Compound A12] get with ERα_LBD(GST) (Homo sapiens (Human), UniProt P03372)?
[out] > 8.00

[in] For the record C[C@H]1Cc2c([nH]c3ccccc23)[C@H](c2cnc(N3CCC4(CC3)C[C@@H](CN3CCN5c6ccc7c(c6OC[C@@H]5C3)CN([C@@H]3CCC(=O)NC3=O)C7=O)CO4)nc2)N1CC(F)F [Compound A59, formate] , what value of pIC50 is listed for ERα_LBD(GST) (Homo sapiens (Human), UniProt P03372)?
[out] ≤ 8.00

[in] // fetch ERα_LBD(GST) (Homo sapiens (Human), UniProt P03372) pIC50 for COc1cc(N2CCC(CN3CCN4c5ccc6c(c5OC[C@H]4C3)CN([C@H]3CCC(=O)NC3=O)C6=O)CC2)ccc1[C@@H]1c2[nH]c3ccccc3c2C[C@@H](C)N1CC(C)(C)F
[out] ≤ 8.00

[in] API: value(readout= pIC50, system= ERα_LBD(GST) (Homo sapiens (Human), UniProt P03372), query= COc1cc(N2CCC(CN3CCN4c5cc6c(cc5OC[C@@H]4C3)C(=O)N([C@H]3CCC(=O)NC3=O)C6)CC2)ccc1[C@@H]1c2[nH]c3ccccc3c2C[C@@H](C)N1CC(F)F [Compound A28] )
[out] > 8.00

[in] Hello, I am looking for reported pIC50 with ERα_LBD(GST) (Homo sapiens (Human), UniProt P03372) for COc1cc(N2CCC(CN3CCN4c5ccc6c(c5OC[C@@H]4C3)CN([C@H]3CCC(=O)NC3=O)C6=O)CC2)ccc1[C@@H]1c2[nH]c3ccccc3c2C[C@@H](C)N1CC(F)F [Compound A45] . Could you help?
[out] > 8.00

[in] Give ERα_LBD(GST) (Homo sapiens (Human), UniProt P03372) pIC50 for C[C@H]1Cc2c([nH]c3ccccc23)[C@H](c2cnc(N3CCC4(CC3)C[C@H](CN3CCN5c6cc7c(cc6OC[C@@H]5C3)C(=O)N([C@@H]3CCC(=O)NC3=O)C7)CO4)nc2)N1CC(F)F
[out] ≤ 8.00

// moving on: another record for pIC50
[in] // lookup pIC50 | system=ERα_LBD(GST) (Homo sapiens (Human), UniProt P03372) | key= C[C@H]1Cc2c([nH]c3ccccc23)[C@H](c2cnc(N3CCC4(CC3)C[C@@H](CN3CCN5c6cc7c(cc6OC[C@H]5C3)C(=O)N([C@@H]3CCC(=O)NC3=O)C7)CO4)nc2)N1CC(F)F
[out] ≤ 8.00
